The values you see were collected from patent US20240285769A1.

# protocol summary: Drug saturation solubility studies
# Format: physicochemical
# run conditions: NMP:HP-b-CD (9:1 w/w), 21 °C, organic solvent or mixture, thermodynamic from solid, solvent NMP:HP-b-CD (9:1 w/w)

molecule	solubility (mg/mL)
C[C@H]1CO[C@@H]2Cn3cc(C(=O)NCc4ccc(F)cc4F)c(=O)c(O)c3C(=O)N12 [CAB, Cabotegravir]	158

====

# protocol summary: Drug saturation solubility studies
# Type: physicochemical
# run conditions: NMP:DMSO (2:8 w/w), 21 °C, organic solvent or mixture, thermodynamic from solid, solvent NMP:DMSO (2:8 w/w)

smiles notation	solubility
C[C@H]1CO[C@@H]2Cn3cc(C(=O)NCc4ccc(F)cc4F)c(=O)c(O)c3C(=O)N12	52.2 mg/mL

====

# protocol summary: Drug saturation solubility studies
# Assay type: physicochemical
# run conditions: (NMP:DMSO 1:1 w/w):Tween 20 (9:1 w/w), 21 °C, organic solvent or mixture, thermodynamic from solid, solvent (NMP:DMSO 1:1 w/w):Tween 20 (9:1 w/w)

smiles notation	solubility / mg/mL
C[C@H]1CO[C@@H]2Cn3cc(C(=O)NCc4ccc(F)cc4F)c(=O)c(O)c3C(=O)N12	107

====

# protocol summary: Drug saturation solubility studies
# Assay type: physicochemical
# run conditions: NMP:b-CD (6:4 w/w), 21 °C, organic solvent or mixture, thermodynamic from solid, solvent NMP:b-CD (6:4 w/w)
property name: solubility (mg/mL)

smiles notation	reading
C[C@H]1CO[C@@H]2Cn3cc(C(=O)NCc4ccc(F)cc4F)c(=O)c(O)c3C(=O)N12	81.8

====

# protocol summary: Drug saturation solubility studies
# Assay type: physicochemical
# run conditions: 21 °C, organic solvent or mixture, thermodynamic from solid; solvent NMP:DMSO (1:1 w/w)

molecule	readout units	solubility
CC(=O)O[C@]1(C(C)=O)CC[C@H]2[C@@H]3C[C@H](C)C4=CC(=O)CC[C@]4(C)[C@H]3CC[C@@]21C [MPA, medroxyprogesterone acetate]	mg/mL	33.6

====

Entries and their solubility
# protocol summary: Drug saturation solubility studies
# Format: physicochemical
# run conditions: DMSO, 21 °C, organic solvent or mixture, thermodynamic from solid, solvent DMSO
property name: solubility

smiles notation	reading
C[C@@H]1CCO[C@H]2Cn3cc(C(=O)NCc4ccc(F)cc4F)c(=O)c(O)c3C(=O)N12	55 mg/mL
C[C@H]1CO[C@@H]2Cn3cc(C(=O)NCc4ccc(F)cc4F)c(=O)c(O)c3C(=O)N12	38 mg/mL

====

# protocol summary: Drug saturation solubility studies
# Assay type: physicochemical
# run conditions: NMP:DMSO (1:1 w/w), 21 °C, organic solvent or mixture, thermodynamic from solid, solvent NMP:DMSO (1:1 w/w)

smiles notation	readout units	solubility
C[C@@H]1CCO[C@H]2Cn3cc(C(=O)NCc4ccc(F)cc4F)c(=O)c(O)c3C(=O)N12	mg/mL	229

====

# protocol summary: Drug saturation solubility studies
# Assay type: physicochemical
# run conditions: NMP:HP-b-CD (6:4 w/w), 21 °C, organic solvent or mixture, thermodynamic from solid, solvent NMP:HP-b-CD (6:4 w/w)

smiles notation	solubility (mg/mL)
C[C@H]1CO[C@@H]2Cn3cc(C(=O)NCc4ccc(F)cc4F)c(=O)c(O)c3C(=O)N12	89.6

====

# protocol summary: Drug saturation solubility studies
# Assay type: physicochemical
# run conditions: NMP, 21 °C, organic solvent or mixture, thermodynamic from solid, solvent NMP
property name: solubility (mg/mL)

smiles notation	property name	readout units	reading
C[C@@H]1CCO[C@H]2Cn3cc(C(=O)NCc4ccc(F)cc4F)c(=O)c(O)c3C(=O)N12	solubility	mg/mL	269
